- System: M. tuberculosis H37Rv growth inhibition, 7H9 media
- procedure details: M. tuberculosis growth inhibition, HTS (AID 449762);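 also: bacterial growth assessed after seven days of incubation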
- condition label: measured here: IC90 growth inhibition
Records with an inconclusive call do not appear.
Listing of entries alongside the reported IC90.
measurement label: IC90 (µM)

• CC(C)(C)c1cc(-c2nc(N)nc(N)n2)c(O)c(C(C)(C)C)c1 = 88.9
• CCOC(=O)c1c(NC(=O)CCl)sc(CN(C)C)c1-c1ccccc1 = 4.68
• Cc1ccc(-n2c(Cl)c(Cl)nc(Cl)c2=O)cc1 = 18.3
• COc1cccc2sc3ccc(C#CC4(N)CCCCC4)cc3c(=O)c12 = 82.2
• Cc1ccc(N/N=C/C=C/c2ccco2)cc1 = 98.2
• CCCc1cc(-c2nc(N)ncc2-c2ccc3c(c2)OCCCO3)c(O)cc1OC = 54.9
• c1ccc(C2[C@H]3CN(CC4CCCCC4)[C@H](c4ccccc4)C34CC2(c2cccnc2)C4)cc1 (stereo partly drawn) = 41.5
• COC(=O)c1ccc(-c2ncc(-c3cccc4ccccc34)o2)cc1 = 52.7
• O=C1CN(CC(=O)N2CCCCC2)c2ccccc2O1 = 27.4
• CN(C)CCNc1ncnc2c1sc1nc(-c3ccccc3)c3c(c12)CCCC3 = 20.7
• CC(=O)N(Cc1ccc(F)cc1)C1=C(NCCc2ccccc2)C(=O)c2ccccc2C1=O = 6.59
• CCN1C(N(C)CCc2c[nH]c3ccccc23)=N[C@@H](c2cccc(C(F)(F)F)c2)C(C(=O)OC)=C1C = 23.7
• CCN=c1scc(-c2ccco2)n1/N=C/c1ccc(OC)c(O)c1 = 41.8
• CCC(C)c1ccc2oc(-c3ccc(NC(=O)c4ncn[nH]4)cc3)nc2c1 (stereo not drawn) = 7.52
• Cn1cc(C(=O)c2ccc(Cl)cc2)cc1-c1nc2ccccc2n1C = 27.1
• COc1ccc(C2CC(=O)C3=C(C2)NC(C)=C(C#N)C3c2ccc(N(C)C)cc2)cc1 (stereo not drawn) = 33
• CN1C(=O)/C(=C/c2cccc(Cl)c2)Sc2ccc(C(=O)N3CCCC3)cc21 = 31
• O=C(NCCC1=CCCCC1)NC12CC3CC(CC(C3)C1)C2 = 0.34
• CC(C)(C)c1ccc(Cn2nnc3c(=O)[nH]c(C4CCCN(C(=O)Cc5cccs5)C4)nc32)cc1 (stereo not drawn) = 47.8
• NN(Cc1ccccc1)C(=S)Nc1ccc(Cl)c(Cl)c1 = 58.1
• O=C(Cn1ncc(Cl)c(Cl)c1=O)c1ccc2c(c1)OCCO2 = 12.2
• O=C1Nc2cc(C(=O)NCCCN3CCOCC3)ccc2S/C1=C/c1cccc(Cl)c1 = 41
• C(=N\Nc1ccc2ccccc2n1)/c1ccc2c(c1)OCCO2 = 4.03
• CCc1ccc(/C(C)=N/Nc2cc(Cl)nc(C)n2)cc1 = 99
• CCCn1c(Nc2nc3ccccc3n2C)nc2ccccc21 = 88.7
• O=C(/C=C/c1ccc(OCCCF)cc1)Nc1ccnc(-c2ccncc2)n1 = 68.8
• Cc1cccc(NC(=O)CCSc2nnc(Cc3ccccc3)o2)c1 = 49.3
• CCOC(=O)c1ccc(NC2=CC(=O)C(=O)c3ccccc32)cc1 = 39.7
• CCNc1nc(NCC)nc(N/N=C/c2ccc([N+](=O)[O-])o2)n1 = 1.67
• CC[C@@H](C)[C@H](CN[C@H](CNC)C(C)C)NC[C@@H](C)c1ccc(CC(C)C)cc1 = 12.6
• COc1ccc(C(CCN2CCCCC2)c2c(OC)cc(OC)c3c(-c4ccccc4)cc(=O)oc23)cc1 (stereo not drawn) = 22.4
